# Tested on: TrpE6 mutant anthranilate synthase (Escherichia coli, UniProt P00895, K50E/S40F)
# Construct: endogenous in cells
# Sequence (P00895 whole entry S40F/K50E): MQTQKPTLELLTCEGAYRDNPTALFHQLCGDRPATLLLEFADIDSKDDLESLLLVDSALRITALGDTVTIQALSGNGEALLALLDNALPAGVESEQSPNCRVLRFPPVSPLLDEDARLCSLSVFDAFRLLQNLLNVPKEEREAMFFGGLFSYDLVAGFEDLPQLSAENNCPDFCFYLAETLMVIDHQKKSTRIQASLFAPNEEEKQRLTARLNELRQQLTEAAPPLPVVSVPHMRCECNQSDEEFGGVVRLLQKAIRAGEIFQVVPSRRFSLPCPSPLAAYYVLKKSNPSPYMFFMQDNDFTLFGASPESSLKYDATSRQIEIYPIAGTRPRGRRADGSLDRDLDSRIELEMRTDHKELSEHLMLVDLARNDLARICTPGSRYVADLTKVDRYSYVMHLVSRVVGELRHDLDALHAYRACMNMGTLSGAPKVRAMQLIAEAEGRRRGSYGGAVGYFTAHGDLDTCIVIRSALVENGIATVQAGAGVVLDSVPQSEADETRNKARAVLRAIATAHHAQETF
# Sequence (P00904 2-531, further chain): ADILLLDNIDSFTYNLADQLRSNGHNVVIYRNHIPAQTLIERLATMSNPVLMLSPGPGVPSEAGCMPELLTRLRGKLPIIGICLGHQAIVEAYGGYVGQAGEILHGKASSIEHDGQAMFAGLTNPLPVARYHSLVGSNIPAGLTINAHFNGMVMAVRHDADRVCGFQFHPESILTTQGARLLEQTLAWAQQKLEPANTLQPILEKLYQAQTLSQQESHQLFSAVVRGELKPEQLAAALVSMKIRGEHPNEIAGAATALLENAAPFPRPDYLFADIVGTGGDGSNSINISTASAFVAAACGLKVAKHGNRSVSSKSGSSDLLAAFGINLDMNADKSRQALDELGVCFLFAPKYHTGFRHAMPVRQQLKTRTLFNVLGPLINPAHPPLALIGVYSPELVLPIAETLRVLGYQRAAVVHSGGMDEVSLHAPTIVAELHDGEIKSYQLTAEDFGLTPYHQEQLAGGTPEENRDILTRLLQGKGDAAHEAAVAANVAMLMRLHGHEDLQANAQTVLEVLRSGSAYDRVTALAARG
# Assay info: Ki value of anthranilate synthase (AS) to L-tryptophan, TrpE6
Reported property: Ki

Query: # get_value(readout='Ki', item= N[C@@H](Cc1c[nH]c2ccccc12)C(=O)O [L-tryptophan] )
Result: > 15 mM

* * *

# Tested on: Wild type trpE anthranilate synthase (Escherichia coli)
# Construct: endogenous in cells
# Sequence (P00904 2-531): as the sequence (P00904 2-531, further chain) above
# Sequence (P00895 whole entry): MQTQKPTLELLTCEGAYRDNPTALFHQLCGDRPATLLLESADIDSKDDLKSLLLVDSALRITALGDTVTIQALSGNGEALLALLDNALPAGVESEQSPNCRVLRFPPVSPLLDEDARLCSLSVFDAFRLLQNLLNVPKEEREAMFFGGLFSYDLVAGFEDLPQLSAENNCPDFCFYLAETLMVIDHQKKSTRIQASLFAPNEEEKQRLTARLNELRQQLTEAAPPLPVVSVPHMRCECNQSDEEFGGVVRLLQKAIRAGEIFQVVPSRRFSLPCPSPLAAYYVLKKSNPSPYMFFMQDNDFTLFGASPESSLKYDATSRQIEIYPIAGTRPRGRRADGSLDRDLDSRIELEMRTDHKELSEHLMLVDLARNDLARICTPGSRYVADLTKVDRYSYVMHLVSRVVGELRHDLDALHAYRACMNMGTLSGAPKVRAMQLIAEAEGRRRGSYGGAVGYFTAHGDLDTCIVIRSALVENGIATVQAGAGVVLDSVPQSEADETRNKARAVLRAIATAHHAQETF
# Assay info: Ki value of anthranilate synthase (AS) to L-tryptophan, wild type
# Procedure: Following the culture for 24–48 hours at 37° C., 5-methyltryptophan resistant clones were seeded on the aforementioned agar medium. In order to examine properties of the obtained mutant strain, Ki value of AS to L-tryptophan was measured (Bauerle R. et al., Methods in Enzymology, 142, pp.366–386, 1987). As a result, the mutant strains could be classified into two classes. […] The AS genes of these mutant strains were cloned and their nucleotide sequences were determined. […]
Reported property: pKi
One number for each entry, as −log10 of the molar value.

Query: Fill in the blank: the reported pKi of `N[C@@H](Cc1c[nH]c2ccccc12)C(=O)O` is ____.
Result: 5.00
